B1: PhoQ; a variant is named by its letters at X, in order, P23837 (parent)
chain: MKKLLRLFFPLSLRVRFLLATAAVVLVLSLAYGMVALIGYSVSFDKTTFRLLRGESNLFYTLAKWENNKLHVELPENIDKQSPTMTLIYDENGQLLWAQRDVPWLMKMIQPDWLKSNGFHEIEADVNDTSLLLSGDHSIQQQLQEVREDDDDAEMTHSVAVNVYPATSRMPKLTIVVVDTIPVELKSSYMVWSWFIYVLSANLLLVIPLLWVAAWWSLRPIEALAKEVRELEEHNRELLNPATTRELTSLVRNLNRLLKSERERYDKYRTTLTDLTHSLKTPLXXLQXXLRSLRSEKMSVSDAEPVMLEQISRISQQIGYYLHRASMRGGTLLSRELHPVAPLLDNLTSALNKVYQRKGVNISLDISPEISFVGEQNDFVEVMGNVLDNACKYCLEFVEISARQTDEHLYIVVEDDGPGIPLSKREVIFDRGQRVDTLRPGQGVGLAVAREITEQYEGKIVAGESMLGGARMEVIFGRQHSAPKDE

- Variants of: B1
- Run Description: enrichment ratio after two sorts for PhoP signalling (ratio (wild type AVST 3.29)); higher = more functional
- Run Conditions: with PhoP (E. coli)
The full ranking holds about 140,000 sequences; the median of “enrichment ratio after two sorts for PhoP signalling” is about 0, and the highest 2% start at about 11. Only a selection was taken, and the highest values are over-represented in it overall.
Field: enrichment ratio. Provide a value for each of the variants that follow.

Query :: Specify reported enrichment ratio for the variant shown: "TIWM"
Result :: ≤ 0.25

Query :: Supply enrichment ratio value. Item: "TIGM"
Result :: 21.8

Query :: Write down enrichment ratio measured for item "KSNM"
Result :: ≤ 0.25

Query :: Please report enrichment ratio for the following variant: "QSWY"
Result :: 7.32

Query :: Answer with the recorded enrichment ratio of "QSTD" only.
Result :: ≤ 0.25

Query :: Return enrichment ratio for the following variant: "QELM"
Result :: ≤ 0.25

Query :: Answer with the recorded enrichment ratio of "QPSM" only.
Result :: ≤ 0.25

Query :: Query enrichment ratio for "LNTD"
Result :: ≤ 0.25

Query :: Could you please provide reported enrichment ratio for "QSSM" ? Thanks!
Result :: 15.9

Query :: Note enrichment ratio for the variant shown: "PAAY"
Result :: ≤ 0.25

Query :: Using known records, supply enrichment ratio for "QQSM"
Result :: 13.3

Query :: Write down enrichment ratio measured for item "TIYM"
Result :: 2.83

Query :: Given the variant "WKTT" , write its reported enrichment ratio.
Result :: ≤ 0.25

Query :: Please look at this variant and report its enrichment ratio: "AVQG"
Result :: ≤ 0.25

Query :: // fetch enrichment ratio given entry "NYGC"
Result :: ≤ 0.25

Query :: # return recorded enrichment ratio for input "VNRG"
Result :: ≤ 0.25

Query :: Supply enrichment ratio value. Item: "YYHP"
Result :: ≤ 0.25

Query :: Find the measured enrichment ratio of "PNLQ" and report it.
Result :: 1.01

Query :: Using known records, supply enrichment ratio for "QGYI"
Result :: 17.5

Query :: Fill in enrichment ratio for record "FVHD"
Result :: ≤ 0.25
